Species on record: Cavia porcellus
Assay: Positive inotropic activity in spontaneously beating guinea pig atria
Format: functional, organism-based
Kindly supply the reported EC50 values for the records listed here.

Please give the measured EC50 for this compound: C=C[C@@]1(C)CC(=O)[C@]2(O)C3(C)C(C(OC(=O)CN4CCCCCC4)C(O)[C@@]2(C)O1)C(C)(C)CC[C@@H]3O.Cl (stereo not given in full) 1.9 µg/mL

Please give the measured EC50 for this compound: C=C[C@@]1(C)CC(=O)[C@]2(O)C3(C)C(C(O)C(OC(=O)CN4CCOCC4)[C@@]2(C)O1)C(C)(C)CC[C@@H]3O.Cl (stereo not given in full) 0.35 µg/mL

Please give the measured EC50 for this compound: CC(CCc1ccc(O)cc1)NCCc1ccc(O)c(O)c1 (stereo not given) 0.3 µg/mL

Please give the measured EC50 for this compound: C=C[C@@]1(C)CC(=O)[C@]2(O)C3(C)C(C(O)C(OC(=O)CN4CCCCC4)[C@@]2(C)O1)C(C)(C)CC[C@@H]3O.Cl (stereo not given in full) > 30 µg/mL

Please give the measured EC50 for this compound: C=C[C@@]1(C)CC(=O)[C@]2(O)C3(C)C(C(OC(=O)CCN4CCN(C)CC4)C(O)[C@@]2(C)O1)C(C)(C)CC[C@@H]3O.Cl (stereo not given in full) 0.2 µg/mL
